Papp at 100 min, 53 μM for assorted compounds
# TEST_PROTOCOL: Transport across Caco-2 cell monolayers, apical to basolateral
# Type: in vitro ADME, human
# APPLIED_CONDITIONS: human, Caco-2, pH 7.4; 53 μM; read-out: apparent permeability coefficient Papp at 53 μM
ASSAY_READOUT: Papp at 100 min, 53 μM

COMPOUND: CCCCCCCC/C=C\CCCCCCCC(=O)OCC/C=C/c1ccc(OC)c(OC)c1
ASSAY_READOUT: Papp at 100 min, 53 μM
OBS_VALUE: 9.45 ×10⁻⁶ cm/s
//
COMPOUND: COc1ccc(/C=C/CCO)cc1OC [Compound D, (E)-4-(3,4-dimethoxyphenyl)but-3-en-1-ol]
ASSAY_READOUT: Papp at 100 min, 53 μM
OBS_VALUE: 8.53 ×10⁻⁶ cm/s
//
COMPOUND: CCCCC/C=C\C/C=C\CCCCCCCC(=O)OCC/C=C/c1ccc(OC)c(OC)c1
ASSAY_READOUT: Papp at 100 min, 53 μM
OBS_VALUE: 13.9 ×10⁻⁶ cm/s
//
COMPOUND: CCCCCCCCCCCCCCCC(=O)OCC/C=C/c1ccc(OC)c(OC)c1
ASSAY_READOUT: Papp at 100 min, 53 μM
OBS_VALUE: 7.48 ×10⁻⁶ cm/s
